Measured binding specificity, clonal phage vs. control phage values are reported for all entries that follow.
target.system: T1, GST-free tubby-N (tubby N-terminus, 1M-242P) (mouse, UniProt P50586 1-242)
T1 sequence (looked up): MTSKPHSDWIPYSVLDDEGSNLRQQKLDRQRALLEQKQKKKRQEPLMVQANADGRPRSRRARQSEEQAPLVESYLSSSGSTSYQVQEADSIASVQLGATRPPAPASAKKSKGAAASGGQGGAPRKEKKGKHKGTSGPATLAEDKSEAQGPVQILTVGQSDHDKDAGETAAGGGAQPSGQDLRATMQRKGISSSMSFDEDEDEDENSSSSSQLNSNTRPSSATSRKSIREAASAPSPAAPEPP
protocol.description: phage binding assay
readout: binding specificity, clonal phage vs. control phage

binder	test.result
Tubby like protein 1 (Tulp1) phage clone, 125D-243E (domain or fragment, mouse, UniProt Q9Z273 125-243, looked up, biotin on the C-terminal biotinylation tag (E. coli BirA ligase)) DDDEEEEEKKEGKKEKSSLPPKKAPKEREKKAKALGPRGDVGSPDAPRKPLRTKKKEVGEGTKLRKAKKKGPGETDKDPAGSPAALRKEFPAAMFLVGEGGAAEKGVKKKGPPKGSEEE	~49 X
Regulated endocrine-specific protein 18 (Resp18) phage clone, 68V-134K (domain or fragment, mouse, UniProt P47939-1 68-134, looked up) VPEGMFWADDIAYELMTKKVEHLSRLHPQYPCRKDMKAVSPTANAGVRSKQEEKLQLLSPQKSPTVK-{biotinylation tag(biotin)}	~10.3 X
IQ motif containing GTPase activating protein 2 (Iqgap2) phage clone, 1232E-1368E (domain or fragment, mouse, UniProt Q3UQ44 1232-1368, looked up, biotin on the C-terminal biotinylation tag (E. coli BirA ligase)) EKSDLLNELLESLGEVPTVESFLGEGAVDPNDPNKENTLNQLSKTEISLSLTSKYDVKDGEAVDGRSLMIKTKKLIIDVTRNQPGSTLTEILETPATGQQELEHAKDMESRAVVDSRTPEEGKQSQAVIEDARLPLE	~53.2 X
CCCTC-binding factor (Ctcf) phage clone, 136G-400T (domain or fragment, mouse, UniProt Q61164 136-400, looked up, biotin on the C-terminal biotinylation tag (E. coli BirA ligase)) GAYENEVSKEGLAESEPMICHTLPLPEGFQVVKVGANGEVETLEQGELPPQEDSSWQKDPDYQPPAKKTKKTKKSKLRYTEEGKDVDVSVYDFEEEQQEGLLSEVNAEKVVGNMKPPKPTKIKKKGVKKTFQCELCSYTCPRRSNLDRHMKSHTDERPHKCHLCGRAFRTVTLLRNHLNTHTGTRPHKCPDCDMAFVTSGELVRHRRYKHTHEKPFKCSMCDYASVEVSKLKRHIRSHTGERPFQCSLCSYASRDTYKLKRHMRT	~117 X

Hey, just so you know, these numbers are from paper PMC3816987.
